system: NCI-H226 lung; test: NCI-60 one-dose screen, 48 h (100 = growth as untreated, 0 = no growth, -100 = all killed); details: 10 µM unless noted
This is part of a sample that, as a whole, favours compounds with a hit. Of some 83,000 tested, about 20% had one in any assay. The source made the active and inactive calls. How the source made its calls: active means growth percent below 10; inactive means the rest.
observed-property: growth

For the compound "CN1CCN(Cc2ccc(NC(=O)c3cncc(C#Cc4ncc5ccccn45)c3)cc2C(F)(F)F)CC1" , the measured growth on NCI-H226 lung was -8.28% (active)

For the compound "C=C(C)c1ccc(/C=N/NC(N)=S)cc1" , the measured growth on NCI-H226 lung was 86.3% (inactive)

For the compound "O=C(O)/C=C(\c1nc2ccc([N+](=O)[O-])cc2[nH]1)c1cc(Cl)ccc1O" , the measured growth on NCI-H226 lung was 34.4% (inactive)

For the compound Nc1nc(N)c2c(n1)NC(c1sc(Cl)nc1Cl)CC(c1ccc3c(c1)OCO3)=N2 (centres undefined) , the measured growth on NCI-H226 lung was 82.7% (inactive)

For the compound "COc1cc2c(cc1I)-c1c(cc(OC)c(OC)c1OC)CC[C@@H]2NC(C)=O" , the measured growth on NCI-H226 lung was 33.6% (inactive)

For the compound CCOC(=O)c1ccccc1SC(C[N+](=O)[O-])c1ccccc1 (centres undefined) , the measured growth on NCI-H226 lung was 86.2% (inactive)

For the compound "CCOC(=O)c1ccc(NC(=O)NC2=NCCS2)cc1" , the measured growth on NCI-H226 lung was 13.5% (inactive)

For the compound "COc1ccc(-c2nc(-c3cc(OC)cc(OC)c3)[nH]c2-c2ccc(OC)cc2)cc1" , the measured growth on NCI-H226 lung was 48.7% (inactive)

For the compound O=C(NCC(c1ccsc1)N1CCCCCC1)c1ccc(C(F)(F)F)cc1 (centres undefined) , the measured growth on NCI-H226 lung was 91.9% (inactive)

For the compound "COc1cc(/C=C/c2ccc3c(Br)cc(Br)c(O)c3n2)ccc1O" , the measured growth on NCI-H226 lung was 67.7% (inactive)

Numbers sourced from PubChem BioAssay (NCI).
